biological target: GIM-1 protein (Pseudomonas aeruginosa); assay: Inhibition of Pseudomonas aeruginosa 6His-tagged GIM-1 (Q19 to D250 residues) expressed in Escherichia coli BL21 Star(DE3) pLysS using nitrocefin as substrate preincubated for 5 mins followed by substrate addition by spectrophotometric analysis; settings: read-out: IC50
Sequence (Q704V1 whole entry, the tested form may be a part): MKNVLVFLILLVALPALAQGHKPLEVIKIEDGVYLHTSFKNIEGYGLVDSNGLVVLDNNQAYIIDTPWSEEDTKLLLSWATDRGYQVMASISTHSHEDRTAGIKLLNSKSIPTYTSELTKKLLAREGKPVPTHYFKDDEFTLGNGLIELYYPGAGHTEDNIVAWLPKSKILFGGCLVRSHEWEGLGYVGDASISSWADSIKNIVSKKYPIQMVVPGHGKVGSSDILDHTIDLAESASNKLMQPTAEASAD
pIC50: −log10 of the molar value.
Lab note: anything with pIC50 at or over 4 counts as Met; the rest go in Not met.

COMPOUND	LABEL_CLASS
O=P(O)(O)C(CS)CCCc1ccccc1 (configuration not stated)	Met
CCOP(=O)(OCC)C(CO)CCCCc1ccccc1 (configuration not stated)	Not met
CC(=O)SCC(Cc1ccccc1)c1nnn[nH]1 (configuration not stated)	Not met
SCC(CCCc1ccccc1)c1nnn[nH]1 (configuration not stated)	Met
